# Test Summary: in vitro
# Recorded Conditions: pig, cellular viability (dehydrogenase activity) compared to the negative control, 1 µM, 48 h, CCK-8, n = 18
Quantity Measured: viability at 1 µM (%)
Give just the number in %; leave the unit off.

C[C@@H]1Cc2c(Cl)cc(C(=O)O)c(O)c2C(=O)O1 | 119

// switching to the query compound
The compound "C[C@@H]1Cc2c(Cl)cc(C(=O)N[C@@H](Cc3ccccc3)C(=O)O)c(O)c2C(=O)O1" showed viability at 1 µM equal to 92

----------
# System: PBCEC monolayer
# Assay type: in vitro ADME, porcine
# Recorded Conditions: 200 nM in both compartments, 100 µM probenecid from 1 h before, n = 3
As shown below, each of these molecules has a reported concentration in the apical compartment after 48 h value.
Give just the number in nM; leave the unit off.

C[C@@H]1Cc2c(Cl)cc(C(=O)N[C@@H](Cc3ccccc3)C(=O)O)c(O)c2C(=O)O1 [OTA, Ochratoxin A] | 292
CC1=C2C(=CO[C@H](C)[C@H]2C)C(O)=C(C(=O)O)C1=O [CIT, Citrinin] | 205
Cc1c(O)c(C(=O)O)c(O)c2c1[C@H](C)[C@@H](C)OC2=O [DHCIT, dihydrocitrinone] | 250

// switching to the query molecule
Query C[C@@H]1Cc2c(Cl)cc(C(=O)O)c(O)c2C(=O)O1 [OTα, ochratoxin α] on PBCEC monolayer; concentration in the apical compartment after 48 h returned: 236
